- SYSTEM NAME: Runt-related transcription factor 1 (Homo sapiens) + Core-binding factor subunit beta (Homo sapiens) (UniProt Q01196+Q13951)
- Sequence (Q01196 whole entry, looked up, the tested form may be a part): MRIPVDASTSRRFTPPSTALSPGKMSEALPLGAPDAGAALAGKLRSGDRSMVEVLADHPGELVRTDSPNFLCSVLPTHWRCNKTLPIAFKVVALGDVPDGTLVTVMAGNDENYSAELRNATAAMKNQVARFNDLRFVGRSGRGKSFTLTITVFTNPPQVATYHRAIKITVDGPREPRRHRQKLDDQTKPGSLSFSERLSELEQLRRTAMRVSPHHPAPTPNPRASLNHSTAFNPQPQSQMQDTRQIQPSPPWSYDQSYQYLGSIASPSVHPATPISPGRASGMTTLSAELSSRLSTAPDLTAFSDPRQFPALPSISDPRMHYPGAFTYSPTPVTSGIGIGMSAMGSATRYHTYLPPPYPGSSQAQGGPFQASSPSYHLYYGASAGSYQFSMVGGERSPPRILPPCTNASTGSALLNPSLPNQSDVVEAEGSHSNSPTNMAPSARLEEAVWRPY
- Sequence (Q13951 whole entry, looked up, the tested form may be a part): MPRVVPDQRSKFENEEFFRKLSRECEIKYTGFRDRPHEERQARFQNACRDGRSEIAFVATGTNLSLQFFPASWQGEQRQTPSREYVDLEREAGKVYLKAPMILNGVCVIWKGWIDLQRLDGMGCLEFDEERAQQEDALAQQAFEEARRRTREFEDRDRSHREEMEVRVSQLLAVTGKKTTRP
- ASSAY COMMENT: disruptors of Runt domain/CBFb-SMMHC interaction – biochemical, FRET, Cerulean-Runt, Venus-CBFb-SMMHC, uHTS, primary screen (AID 1434);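 also: 0% = DMSO wells and 100% = wells with excess untagged CBFb-SMMHC; inhibitors lower the FRET ratio by blocking Runt binding to CBFb-SMMHC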
- EXPERIMENTAL CONTEXT: Cerulean-Runt/Venus-CBFb-SMMHC FRET ratio 530/480, 1 h; at 20 µM; stronger effect = higher value
The campaign covered roughly 220,000 compounds. About 1,600 (0.73%) were called active. The list comes from a sample in which actives are over-represented; it also holds close analogues and randomly drawn compounds.

MOLECULE	UNITS LABEL	inhibition
Cc1cc(C)n(CC(C)NCc2c(C(=O)N3CCOCC3)nc3c(C)cccn23)n1 (stereo unspecified)	%	-0.8
CCOC(=O)c1c(NC(=O)NC(C)(C)C)sc2c1CCN(C)C2	%	10.7
C/C(CC1CC(C)(C)OC1=O)=N/Nc1nc(-c2ccccc2)cs1 (stereo unspecified)	%	-0.6
CCCCc1ccc(NC(=S)N2CCCC(CO)C2)cc1 (stereo unspecified)	%	-1.7
Cc1cccn2c(=O)c3cc(C(=O)N4COCC4(C)C)n(C)c3nc12	%	1.5
Cc1cccn2c(=O)c3cc(C#N)c(=O)n(CCCN4CCOCC4)c3nc12	%	61.6
CNC(=O)c1cccc2nc3ccccc3nc12	%	9
Cc1cc(C)nc(SC2CCCCC2NS(=O)(=O)c2ccc(Cl)cc2)n1 (stereo unspecified)	%	2
CC(C)=C1C2CCC1C1C(=O)N(NC(=O)c3ccco3)C(=O)C21 (stereo unspecified)	%	-1.2
CCOC(=O)c1c(NC(=S)Nc2ccccc2)sc2c1CCN(C)C2	%	159
N=c1oc2ccccc2cc1C(=O)N/N=C/c1ccccc1	%	-6.4

---

- SYSTEM NAME: Runt-related transcription factor 1 (Homo sapiens) + Core-binding factor subunit beta (Homo sapiens) (UniProt Q01196+Q13951)
- ASSAY COMMENT: disruptors of Runt domain/CBFb-SMMHC interaction – biochemical, FRET, Cerulean-Runt, Venus-CBFb-SMMHC, uHTS, primary screen (AID 1434);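 also: 0% = DMSO wells and 100% = wells with excess untagged CBFb-SMMHC; inhibitors lower the FRET ratio by blocking Runt binding to CBFb-SMMHC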
- EXPERIMENTAL CONTEXT: Cerulean-Runt/Venus-CBFb-SMMHC FRET ratio 530/480, 1 h; at 20 µM
Among all 220,000 compounds or so, about 1,600 (0.73%) were called active.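 How the source made its calls: active means mean inhibition across duplicate retests at 20 µM reaching about 50% (limit read from the data); inactive means the rest, inconclusive results apart.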 The sample as a whole holds a higher share of actives than the screen did.
Classes used: 1 (yes) = active, 0 (no) = inactive

MOLECULE	ASSIGNED LABEL
O=C(CSc1nc(O)c(Cc2ccccc2)c(=O)[nH]1)Nc1nc2c(s1)CCCC2	0 (no)
CCO[C@H]1OC(C(=O)NCc2ccccc2)=C[C@@H](c2coc3ccccc3c2=O)[C@@H]1CCCO	0 (no)
Cc1ccc2c(CSc3nncs3)cc(=O)oc2c1	0 (no)
CCOC(=O)c1c(Cc2ccc(Cl)cc2)c[nH]c1C	0 (no)
CCOC(=O)Cc1csc(NC(=O)COc2ccc3c(C)cc(=O)oc3c2)n1	0 (no)
CCN1C(=O)/C(=C\N2CCN(c3ccccc3)CC2)SC1=S	0 (no)
CC(C)c1ccc(Nc2ncccc2C#N)cc1	0 (no)
Cc1ccc(-n2ncc3c(=O)n(-c4ccc(C)c(C)c4)c(-c4ccco4)nc32)cc1	0 (no)
CC(C)n1c(-c2ccncc2)n[nH]c1=S	0 (no)
N#Cc1c(N)n(CCOC(=O)c2ccc(Cl)cc2)c2nc3ccccc3nc12	1 (yes)
CCCc1cc(=S)n2c([nH]c3ccccc32)c1C#N	1 (yes)
CC(C)(C)c1ccc(C(=O)NCC(=O)OCN2C(=O)c3ccccc3C2=O)cc1	0 (no)
Cc1cccc(-n2ncc(C#N)c2-n2cccc2)c1	0 (no)
COc1ccc(/C=N/NC(=O)c2cccc(C(F)(F)F)c2)cc1	0 (no)
CCCCN1C(=O)/C(=C/C=C2/C=Cc3ccccc3N2CC)SC1=S	0 (no)
CCOC(=O)Cc1csc(SCc2cc(=O)oc3cc(O)ccc23)n1	1 (yes)
Nc1nc(CC(=O)CSc2ccc(Cl)cc2)nc(Nc2ccc(F)cc2)n1	0 (no)
N/C(=N\OC(=O)CC1CCCCC1)c1ccccc1	0 (no)
Cc1ccccc1Cn1c(=O)[nH]c2ccccc21	0 (no)
Cc1nc(C(=O)NCc2ccccc2)sc1C1(C)CC(c2cccnc2)=NO1 (centres undefined)	0 (no)
c1ccc(-n2nnnc2-c2cccnc2)cc1	0 (no)
O=C(CNC(=O)c1ccc(-c2ccccc2)cc1)OCc1ccc(Cl)cc1	0 (no)
Cc1cc(C)n(C(=O)CCNC(=O)c2ccccc2Cl)n1	0 (no)
C=CCNC(=O)COC(=O)c1ccccc1C(=O)N(C)C1CCCCC1	0 (no)
